These measurements were taken from patent US11274124B2.

Tested on: MES SA (uterine sarcoma cell line)
Experiment: In vitro cytotoxicity assay (CellTiter-Glo, 72 hours), MES SA
Type: cell-based
Conditions: Homo sapiens, MES-SA, 72 h, read-out: MES SA, IC50
Recorded IC50, one value per entry.
quantity.measured: IC50 (nM)

>>> assay_value("CCOC(=O)C(C)CC(Cc1ccccc1)NC(=O)c1nc([C@@H](CC(C(C)C)N(C)C(=O)[C@@H](NC(=O)[C@H]2CCCCN2C)C(C)C)OC(C)=O)sc1CCO (stereo in doubt)")
0.1
>>> assay_value("COC(=O)C12CC(NC(=O)c3csc([C@@H](C[C@H](C(C)C)N(C)C(=O)[C@@H](NC(=O)[C@H]4CCCCN4C)C(C)C)OC(C)=O)n3)(C1)C2")
0.926
>>> assay_value("CCCC[C@H](NC(=O)[C@H]1CCCCN1C)C(=O)N(C)[C@H](C[C@@H](OC(C)=O)c1nc(C(=O)N[C@@H](Cc2ccccc2)C[C@H](C)C(=O)OCC)cs1)C(C)C")
0.937
>>> assay_value("CC(=O)O[C@H](C[C@H](C(C)C)N(C)C(=O)[C@@H](NC(=O)[C@H]1CCCCN1C)C(C)C)c1nc(C(=O)NC(Cc2ccccc2)C[C@H](C)C(=O)O)c(CCOCc2ccccc2)s1 (stereo in doubt)")
0.04
